I'd appreciate it if you could supply IC50 values for the items below.
assay: Superoxide anion radical scavenging (NBT/NADH/PMS); type: biochemical; details: Conc. ± SD; standard catechin; read-out: IC50 inhibitory concentration, Superoxide anion
One number for each entry, in µM.

Below: 4 molecules and their reported IC50.
[
  {
    "molecule": "O=C(NS(=O)(=O)c1nnc(N=Cc2ccc(O)cc2)s1)c1ccccc1",
    "IC50 / µM": 136
  },
  {
    "molecule": "Oc1cc(O)c2c(c1)O[C@H](c1ccc(O)c(O)c1)[C@@H](O)C2 [catechin, reference compound]",
    "IC50 / µM": 171
  },
  {
    "molecule": "COc1ccc(C=Nc2nnc(S(=O)(=O)NC(=O)c3ccccc3)s2)cc1",
    "IC50 / µM": 74.5
  },
  {
    "molecule": "O=C(NS(=O)(=O)c1nnc(N=Cc2ccccc2O)s1)c1ccccc1",
    "IC50 / µM": 36.7
  }
]

// input: 3 molecules below; output: IC50 for each
1. O=C(NS(=O)(=O)c1nnc(N=Cc2ccc(Cl)cc2)s1)c1ccccc1
2. COc1ccccc1C=Nc1nnc(S(=O)(=O)NC(=O)c2ccccc2)s1
3. O=C(NS(=O)(=O)c1nnc(N=Cc2ccccc2)s1)c1ccccc1

[76.3, 128, 152]
